Target: T1, human neonatal Fc receptor (hFcRn) (human, UniProt P55899 24-290; P61769 21-119)
T1 construct: Biotinylated in the ELISA, Octet and yeast assays; also called human FcRn; huFcRn
T1 sequence (P55899 24-290 limits assumed, chain 1 of 2): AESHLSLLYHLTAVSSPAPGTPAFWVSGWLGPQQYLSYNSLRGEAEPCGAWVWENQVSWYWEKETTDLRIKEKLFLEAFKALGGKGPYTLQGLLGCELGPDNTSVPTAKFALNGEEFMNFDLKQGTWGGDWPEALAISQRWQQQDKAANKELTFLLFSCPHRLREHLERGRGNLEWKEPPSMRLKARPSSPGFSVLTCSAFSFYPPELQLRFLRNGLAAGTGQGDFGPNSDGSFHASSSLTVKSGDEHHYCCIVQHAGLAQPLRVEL
T1 sequence (P61769 21-119 limits assumed, chain 2 of 2): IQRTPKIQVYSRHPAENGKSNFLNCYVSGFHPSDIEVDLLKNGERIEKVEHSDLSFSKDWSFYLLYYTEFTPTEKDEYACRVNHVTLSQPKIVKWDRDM
Experiment: phage ELISA pH 7.4;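 note: higher score means stronger binding and above about 3 to 5 exceeds background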
Method: Approximately 100 μL of biotinylated human FcRn at 2 μg/mL was added to the wells of MAXISORP™ plates coated with 10 μg/mL streptavidin. […] A horseradish peroxidase (HRP)-conjugated anti-M13 antibody was used to detect the binding phage, and the plates were scored by a microtiter plate reader using a wavelength in the visible range. Binding was assessed by a quantitative enzyme-linked immunoadsorbent assay (ELISA). […]
MEASURE_NAME: ELISA score
Respond with the number and no other words.

The binder listed as L5 isolate with insertion SEQ ID NO: 426 (other) EPKSCDKTHTCPPCPAPELLGGPSVFLFPPKPKDTLMISRTPEVTCVVVDVSHEDPEVKFNWYVDGVEVHNAKTKPREEQYNSTYRVVSVLTVLHQDWLNGKEYKCKVSNKALPAPIEKTISKAKGQPREPQVYTLPPSRDELTKNQVSLTCLVKGFYPSDIAVEWESNGGCMQPWINCGGGQPENNYKTTPPVLDSDGSFFLYSKLTVDKSRWQQGNVFSCSVMHEALHNHYTQKSLSLSPGK shows ELISA score equal to 0.3

The binder listed as L5 isolate with insertion SEQ ID NO: 406 (other) EPKSCDKTHTCPPCPAPELLGGPSVFLFPPKPKDTLMISRTPEVTCVVVDVSHEDPEVKFNWYVDGVEVHNAKTKPREEQYNSTYRVVSVLTVLHQDWLNGKEYKCKVSNKALPAPIEKTISKAKGQPREPQVYTLPPSRDELTKNQVSLTCLVKGFYPSDIAVEWESNGGCYQHHMECGGGQPENNYKTTPPVLDSDGSFFLYSKLTVDKSRWQQGNVFSCSVMHEALHNHYTQKSLSLSPGK shows ELISA score equal to 0.4

The binder listed as L6B isolate with insertion SEQ ID NO: 410 (other) EPKSCDKTHTCPPCPAPELLGGPSVFLFPPKPKDTLMISRTPEVTCVVVDVSHEDPEVKFNWYVDGVEVHNAKTKPREEQYNSTYRVVSVLTVLHQDWLNGKEYKCKVSNKALPAPIEKTISKAKGQPREPQVYTLPPSRDELGGCLKGMHGSACGGTKNQVSLTCLVKGFYPSDIAVEWESNGQPENNYKTTPPVLDSDGSFFLYSKLTVDKSRWQQGNVFSCSVMHEALHNHYTQKSLSLSPGK shows ELISA score equal to 0.8

The binder listed as L5 isolate with insertion SEQ ID NO: 401 (other) EPKSCDKTHTCPPCPAPELLGGPSVFLFPPKPKDTLMISRTPEVTCVVVDVSHEDPEVKFNWYVDGVEVHNAKTKPREEQYNSTYRVVSVLTVLHQDWLNGKEYKCKVSNKALPAPIEKTISKAKGQPREPQVYTLPPSRDELTKNQVSLTCLVKGFYPSDIAVEWESNGGCMVPFSMCGGGQPENNYKTTPPVLDSDGSFFLYSKLTVDKSRWQQGNVFSCSVMHEALHNHYTQKSLSLSPGK shows ELISA score equal to 0.6

The binder listed as L5 isolate with insertion SEQ ID NO: 404 (other) EPKSCDKTHTCPPCPAPELLGGPSVFLFPPKPKDTLMISRTPEVTCVVVDVSHEDPEVKFNWYVDGVEVHNAKTKPREEQYNSTYRVVSVLTVLHQDWLNGKEYKCKVSNKALPAPIEKTISKAKGQPREPQVYTLPPSRDELTKNQVSLTCLVKGFYPSDIAVEWESNGGCMMEFAQCGGGQPENNYKTTPPVLDSDGSFFLYSKLTVDKSRWQQGNVFSCSVMHEALHNHYTQKSLSLSPGK shows ELISA score equal to 2.3
